Molecular target: Serine/threonine-protein kinase mTOR (Rattus norvegicus)
reportedProperty: pIC50
Give bare numbers, as −log10 of the molar value.

Here is how some molecules turned out for pIC50.
C[C@@H]1COCCN1c1nc(-c2ccc(NC(=O)Nc3ccc(N4CCC(N(C)C)CC4)cc3)cc2)nc(C2CCOCC2)n1 | 8.77
C[C@@H]1COCCN1c1nc(-c2ccc(NC(=O)Nc3ccncc3)cc2)nc(N2CCOC[C@H]2C)n1 | 9.70
C[C@@H]1COCCN1c1nc(-c2ccc(NC(=O)Nc3ccc(N4CCC(N(C)C)CC4)cc3)cc2)nc(N2CCOC[C@H]2C)n1 | 8.72
C[C@@H]1COCCN1c1nc(-c2ccc(NC(=O)Nc3ccc(N4CCN(C)CC4)cc3)cc2)nc(N2CCOC[C@H]2C)n1 | 8.96
CC(C)N1CCN(C(=O)c2ccc(NC(=O)Nc3ccc(-c4nc(C5CCOCC5)nc(N5CCOC[C@H]5C)n4)cc3)cc2)CC1 | 9.15

Task: Which measured pIC50 value corresponds to C[C@@H]1COCCN1c1nc(-c2ccc(NC(=O)Nc3ccc(N4CCNCC4)cc3)cc2)nc(C2CCOCC2)n1 ?
Result: 9.10
